# tgt: Potassium voltage-gated channel subfamily KQT member 1 (Homo sapiens)
# assay.overview: KCNQ1 potassium channel potentiators, confirmation, FluxOR thallium flux, CHO cells, duplicates (AID 493007)
# measurement.context: KCNQ1 cell line, FluxOR thallium flux fluorescence, at 10 µM, % of reference activator effect, buffer zero
Calls of active or inactive are those of the source.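 Rule for the calls: active = potentiation averaged over duplicate wells exceeding buffer-only control mean by more than 3 SD; inactive = the rest.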
Classes used: active, inactive

compound	class.assignment
c1ccc2c(c1)Sc1ccccc1N2CC1CN2CCC1CC2 (stereo not given)	inactive
Cc1ccccc1-n1c(O)c(/C=N/N2CCOCC2)c(=O)[nH]c1=S	inactive
CC(=NCc1ccc(F)cc1)c1c(O)n(C)c(=O)n(C)c1=O	active
C=C(C)[C@@]12OC3(c4ccccc4)O[C@@H]1C1[C@@H]4O[C@]4(CO)[C@@H](O)[C@]4(O)C(=O)C(C)=C[C@H]4[C@@]1(O3)[C@H](C)[C@H]2OC(=O)/C=C/C=C/c1ccccc1 (stereo not given in full)	inactive
COc1ccc(C2NCc3ccc4c(c3-n3cccc32)OCO4)cc1O (stereo not given)	inactive

----------
# tgt: Short transient receptor potential channel 4 (Mus musculus) (UniProt Q9QUQ5)
# Sequence (Q9QUQ5 whole entry, looked up): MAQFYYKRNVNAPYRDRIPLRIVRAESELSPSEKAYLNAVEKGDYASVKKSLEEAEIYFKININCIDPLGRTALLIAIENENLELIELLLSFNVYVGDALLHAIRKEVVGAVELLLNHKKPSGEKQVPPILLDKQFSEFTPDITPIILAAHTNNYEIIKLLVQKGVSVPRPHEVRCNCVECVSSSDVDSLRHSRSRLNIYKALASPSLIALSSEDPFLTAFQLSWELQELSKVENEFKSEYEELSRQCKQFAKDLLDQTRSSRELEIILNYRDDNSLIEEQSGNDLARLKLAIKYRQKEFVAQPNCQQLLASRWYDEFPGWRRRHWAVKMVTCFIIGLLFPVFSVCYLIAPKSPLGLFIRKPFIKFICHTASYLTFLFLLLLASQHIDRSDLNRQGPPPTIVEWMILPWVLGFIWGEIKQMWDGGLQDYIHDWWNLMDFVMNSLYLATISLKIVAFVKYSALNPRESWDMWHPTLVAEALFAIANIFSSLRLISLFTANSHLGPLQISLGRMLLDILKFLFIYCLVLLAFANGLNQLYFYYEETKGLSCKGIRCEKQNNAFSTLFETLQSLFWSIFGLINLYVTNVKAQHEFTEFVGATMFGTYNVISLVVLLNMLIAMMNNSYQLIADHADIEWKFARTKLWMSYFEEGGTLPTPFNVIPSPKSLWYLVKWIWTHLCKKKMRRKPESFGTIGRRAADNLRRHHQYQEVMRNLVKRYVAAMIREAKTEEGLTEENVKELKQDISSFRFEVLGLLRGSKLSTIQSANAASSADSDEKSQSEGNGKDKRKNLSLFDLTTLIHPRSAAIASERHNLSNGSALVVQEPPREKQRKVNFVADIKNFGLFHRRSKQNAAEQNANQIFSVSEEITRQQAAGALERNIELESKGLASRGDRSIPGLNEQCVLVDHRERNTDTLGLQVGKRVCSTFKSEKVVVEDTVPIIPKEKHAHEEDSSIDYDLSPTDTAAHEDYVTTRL
# assay.overview: inhibitors of mouse TRPC4 channel, confirmation, cell-based, second round, Fluo4, HEK293 TRPC4beta/mu-opioid, 1 µM (AID 2637)
# measurement.context: Fluo4 calcium flux, DAMGO, at 1 µM
The source made the active and inactive calls.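 The calls were made as follows: active = calcium signal ratio cut to more than 3 SD under the fully stimulated control mean yet still positive, in both repeats and the primary screen; inactive = the rest.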
Classes used: active, inactive

> print(dat)
                                    molecule  class.assignment
 1  CN(CCOc1ccc(C=C2C(=O)NC(=O)NC2=O)cc1)c1ccccn1          inactive
 2    CCOC(=O)C1(CCc2ccccc2)CCN(Cc2ccco2)CC1          inactive
 3   O=[N+]([O-])c1ccc(N2CCNCC2)cc1N1CCCCCC1          inactive
 4           Cc1ccc(NC(=S)NCCc2cnc[nH]2)cc1C          inactive
 5  Cc1ccc(-c2cc(-c3ccccc3)cc(-c3ccccc3)[n+]2-c2ccccc2)cc1          inactive
 6                       COC(=O)C1=CCCN(C)C1          inactive
 7         COc1ccc(CNCCc2ccc3c(c2)OCO3)cc1Br          inactive
 8  COC(=O)C(O)(c1ccc(NC(=S)NC(=O)c2ccc(Cl)cc2Cl)c(C)c1)C(F)(F)F (centres undefined)          inactive
 9  COc1ccc(C(=O)C2CCCN(C3CSCCSC3)C2)cc1OC (centres undefined)          inactive
10        COc1ccc(CNCCc2c[nH]c3ccccc23)cc1OC          inactive
11  CCN(CC)P(=O)(/C=C(\Cl)c1ccccc1)/C=C(\Cl)c1ccccc1          inactive
12  O=[N+]([O-])c1cc2c(cc1CNCCc1ccc3c(c1)OCO3)OCO2            active
13                  c1ccc2nc(OCCN3CC3)ccc2c1          inactive
14                        Cc1ccccc1CN1CCNCC1          inactive
15       CCN(CC)c1ccc([N+](=O)[O-])c2cccnc12          inactive
16               COc1ccc2[nH]cc(CCN(C)C)c2c1          inactive
17   CCOc1cc(CNCCc2c[nH]c3ccccc23)cc(Cl)c1OC          inactive
18           COc1ccc(OC)c(N2Cc3ccccc3C2=N)c1            active
19  COc1ccc(C(CNC(=O)Cc2ccc(Cl)c(Cl)c2)N(C)C)cc1 (centres undefined)          inactive
20  COc1ccc(C(CNC(=O)CCc2ccsc2)N(C)C)cc1 (centres undefined)          inactive
21           C[C@H]1OC[C@@H](C[N+](C)(C)C)O1          inactive
22  CCN1CCN(c2cc(N3CCCC3)c([N+](=O)[O-])cc2F)CC1          inactive
23           Nc1cc(N2CCNCC2)ccc1[N+](=O)[O-]          inactive
24                   c1ccc2oc(N3CCNCC3)nc2c1          inactive
25                 Clc1ccc2sc(C3CCNCC3)nc2c1          inactive
26  CCOC(=O)C1(CCc2ccccc2)CCN(Cc2csc(C(C)=O)c2)CC1          inactive
27  COC(=O)C(Cc1ccc(N(CCCl)CCCl)cc1)N=Cc1ccccc1O (centres undefined)          inactive
28  Fc1cccc(C2NCCc3[nH]cnc32)c1 (centres undefined)          inactive
29  CCOC(=O)C1(c2ccccc2)CCN(CCC(=O)Nc2ccccc2OC)CC1          inactive
30    Nc1c([N+](=O)[O-])cc(F)c(N2CCNCC2)c1Br          inactive
31                CCN1CCN(Cc2cc(Br)ccc2O)CC1          inactive
32  CN(C)C1(CNC(=O)c2ccc(Cl)c(S(=O)(=O)NCc3ccco3)c2)CCCCC1          inactive
33  COc1ccc(O)c(CN2CCCC(C(=O)c3sccc3C)C2)c1 (centres undefined)          inactive
34  Cc1ccc(-c2nc(N(C)C3CCN(C)CC3)c3ccccc3n2)cc1          inactive
35     COc1ccc(CNCCc2c[nH]c3ccccc23)c(OC)c1C          inactive
36  Cc1cccc(N=Cc2c(O)n(-c3ccccc3C)c(=O)[nH]c2=O)c1          inactive
37         CCOC(=O)c1cc(C)n(CCc2cnc[nH]2)c1C          inactive
38  COc1ccc(CN2CCCC(C(=O)c3sccc3C)C2)cc1O (centres undefined)          inactive
39  Cc1ccc(CN2C3CCCC2CC(NC(=S)NCc2ccccc2)C3)cc1 (centres undefined)          inactive
